I'd be grateful if you could share measured pEC50 for these entries.
Target or system: Thrombopoietin receptor (Homo sapiens)
Sequence (P40238 whole entry): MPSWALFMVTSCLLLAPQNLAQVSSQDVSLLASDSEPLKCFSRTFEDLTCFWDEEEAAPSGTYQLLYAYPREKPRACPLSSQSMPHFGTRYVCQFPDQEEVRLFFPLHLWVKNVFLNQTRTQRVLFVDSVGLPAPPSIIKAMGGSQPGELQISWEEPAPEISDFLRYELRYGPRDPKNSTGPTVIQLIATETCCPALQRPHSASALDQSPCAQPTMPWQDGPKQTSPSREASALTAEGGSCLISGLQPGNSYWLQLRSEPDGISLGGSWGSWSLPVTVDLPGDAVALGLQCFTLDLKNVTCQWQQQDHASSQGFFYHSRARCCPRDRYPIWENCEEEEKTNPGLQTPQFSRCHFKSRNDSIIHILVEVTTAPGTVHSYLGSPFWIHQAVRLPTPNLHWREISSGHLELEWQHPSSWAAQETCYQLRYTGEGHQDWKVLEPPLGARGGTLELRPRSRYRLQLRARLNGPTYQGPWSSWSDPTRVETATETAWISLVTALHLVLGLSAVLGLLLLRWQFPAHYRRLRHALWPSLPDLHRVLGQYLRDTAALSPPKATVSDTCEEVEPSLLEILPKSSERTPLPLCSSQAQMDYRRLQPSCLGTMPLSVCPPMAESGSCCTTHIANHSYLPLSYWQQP
Assay remarks: Agonist activity at human TPOR expressed
Answer as the number alone; pEC50 is minus log10 of concentration in mol/L.

Data request: Query: pEC50; subject: CC1=NN(c2ccc(C)c(C)c2)C(=O)/C1=C(/C)NNC(=S)N1CCc2cc(C(=O)N3CCOCC3)ccc21
Data returned: 7.51

Data request: Entry to check: CC1=NN(c2ccc(C)c(C)c2)C(=O)/C1=C(/C)NNC(=S)N1CCCc2cc(C(=O)O)ccc21
Data returned: 7.19

Data request: Also CCNC(=O)c1ccc2c(c1)CCN2C(=S)NN/C(C)=C1\C(=O)N(c2ccc(C)c(C)c2)N=C1C , if possible.
Data returned: 7.59

Data request: And CC1=NN(c2ccc3c(c2)CCC3)C(=O)/C1=C(/C)NNC(=S)N1CCc2cc(C(=O)O)ccc21 ?
Data returned: 8.52

Data request: Cool, now CC1=NN(c2ccc3c(c2)CCC3)C(=O)/C1=C(/C)NNC(=O)N1CCc2cc(C(=O)O)ccc21
Data returned: 7.34

Data request: Please do the same for CC1=NN(c2ccc(C)c(C)c2)C(=O)/C1=C(/C)NNC(=S)N1CCc2cc(C(=O)O)ccc21 as well.
Data returned: 8.22

Data request: Now this one: CC1=NN(c2ccc3c(c2)CCC3)C(=O)/C1=C(/C)NNC(=S)N1CCCc2cc(C(=O)O)ccc21
Data returned: 7.46

Data request: Quick one: CC1=NN(c2ccc(C)c(C)c2)C(=O)/C1=C(/C)NNC(=O)N1CCc2cc(C(=O)O)ccc21
Data returned: 7.38

Data request: One more molecule: CNC(=O)c1ccc2c(c1)CCN2C(=S)NN/C(C)=C1\C(=O)N(c2ccc(C)c(C)c2)N=C1C
Data returned: 7.66

Origin of values: ChEMBL document CHEMBL1255541
